Attribution: ChEMBL document CHEMBL2218924

# system.under.test: Protein kinase C alpha type (Homo sapiens) (UniProt P17252)
# test.settings: at 1 µM
Exercise: state measured residual activity for each of the compounds provided.
// return numeric value only (unit: %, not printed)

Please state recorded residual activity (tested on Protein kinase C alpha type (Homo sapiens) (UniProt P17252)) of CC(C)(C)c1nc2c3ccc(F)cc3c3c(=O)[nH]ccc3c2[nH]1
65

Look up residual activity with Protein kinase C alpha type (Homo sapiens) (UniProt P17252) for this compound: Nc1ncnc2[nH]nc(Nc3ccc(F)cc3)c12
108

Give residual activity (Protein kinase C alpha type (Homo sapiens) (UniProt P17252)) of the following compound: NCCNc1ncc(C(N)=O)c(Nc2cccc(C(F)(F)F)c2)n1
45

# returns recorded residual activity (system: Protein kinase C alpha type (Homo sapiens) (UniProt P17252)) for COc1ccc(CNC(=O)Nc2ncc([N+](=O)[O-])s2)cc1
102

Could you share what residual activity was measured for O=C1Cc2c([nH]c3ccc([N+](=O)[O-])cc23)-c2ccccc2N1 , tested on Protein kinase C alpha type (Homo sapiens) (UniProt P17252)?
100

Record c1ccc(-c2cnc(Nc3ccc(OCCN4CCCC4)cc3)s2)cc1 : what is its residual activity with Protein kinase C alpha type (Homo sapiens) (UniProt P17252)?
101

---

# system.under.test: Cyclin-dependent kinase 1/cyclin B1 (Homo sapiens) (UniProt P06493+P14635)
# Sequence (P06493 whole entry, looked up): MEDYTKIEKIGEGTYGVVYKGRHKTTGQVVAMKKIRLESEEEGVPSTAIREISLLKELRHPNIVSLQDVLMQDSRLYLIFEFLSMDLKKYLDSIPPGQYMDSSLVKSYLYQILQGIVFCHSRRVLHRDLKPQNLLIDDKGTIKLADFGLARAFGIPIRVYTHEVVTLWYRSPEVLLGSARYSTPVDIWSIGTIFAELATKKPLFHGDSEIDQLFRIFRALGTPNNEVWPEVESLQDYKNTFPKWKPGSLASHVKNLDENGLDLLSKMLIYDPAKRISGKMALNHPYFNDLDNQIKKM
# Sequence (P14635 whole entry, looked up): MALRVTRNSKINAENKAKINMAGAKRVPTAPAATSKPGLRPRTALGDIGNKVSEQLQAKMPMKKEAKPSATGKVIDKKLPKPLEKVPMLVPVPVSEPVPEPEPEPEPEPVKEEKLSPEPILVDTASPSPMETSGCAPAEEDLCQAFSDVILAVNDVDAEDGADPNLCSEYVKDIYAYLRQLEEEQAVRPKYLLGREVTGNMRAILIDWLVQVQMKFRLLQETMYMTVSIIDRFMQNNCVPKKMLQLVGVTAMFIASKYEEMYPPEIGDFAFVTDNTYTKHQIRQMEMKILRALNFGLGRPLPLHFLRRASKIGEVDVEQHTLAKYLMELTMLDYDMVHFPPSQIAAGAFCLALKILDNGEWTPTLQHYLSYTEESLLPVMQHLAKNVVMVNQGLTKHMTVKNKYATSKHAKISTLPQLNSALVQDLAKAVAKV
# test.settings: at 10 µM
experimental.readout: residual activity (%)
Numeric answer only, unit % assumed.

Lab note: need residual activity with Cyclin-dependent kinase 1/cyclin B1 (Homo sapiens) (UniProt P06493+P14635) for entry O=c1cc(N2CCOCC2)oc2c1ccc1ccccc12 , please look it up.
91

Form field - read-out: residual activity; system: Cyclin-dependent kinase 1/cyclin B1 (Homo sapiens) (UniProt P06493+P14635); submitted item: COc1cc2c(cc1OC)-c1n[nH]c(Nc3cccc(F)c3)c1C2
103

Form field: residual activity recorded for O=C1Cc2c([nH]c3ccc([N+](=O)[O-])cc23)-c2ccccc2N1 with Cyclin-dependent kinase 1/cyclin B1 (Homo sapiens) (UniProt P06493+P14635) (enter value)
23

Checklist item: residual activity tested on Cyclin-dependent kinase 1/cyclin B1 (Homo sapiens) (UniProt P06493+P14635), entry Nc1nc(Nc2ccc(S(N)(=O)=O)cc2)nn1C(=O)c1c(F)cccc1F , value?
0

GET /values?readout=residual activity&system=Cyclin-dependent kinase 1/cyclin B1 (Homo sapiens) (UniProt P06493+P14635)&item= CC(C)(C)n1nc(Cc2cccc3ccccc23)c2c(N)ncnc21
92

Request body: readout residual activity, system Cyclin-dependent kinase 1/cyclin B1 (Homo sapiens) (UniProt P06493+P14635), query CCN(CC)CCNC(=O)c1c(C)[nH]c(/C=C2\C(=O)Nc3ccc(Cl)cc32)c1C . Return the value.
57

---

# system.under.test: Tyrosine-protein kinase Fgr (Homo sapiens)
# test.settings: at 10 µM
Label criterion met when residual activity is strictly below 60%; otherwise label criterion not met.

Consider the compound CC(C)[C@H](CO)Nc1nc(Nc2cc(N)cc(Cl)c2)c2ncn(C(C)C)c2n1 . Is its residual activity strictly less than 60%?
criterion met

State whether 60% exceeds residual activity recorded for Cc1cc(C)c(/C=C2\C(=O)Nc3ccccc32)[nH]1 .
criterion met

Below 60% on residual activity? Entry Nc1ncnc2c1c(-c1ccc(Oc3ccccc3)cc1)cn2C1CCCC1
criterion met

Answer whether the compound Nc1ncnc2[nH]nc(Nc3ccc(F)cc3)c12 has residual activity strictly less than 60%
criterion met

Dear colleague, could you confirm whether residual activity of O=C(CCCc1ccc(-c2ccccc2F)cc1)Nc1ccc(O)cc1 falls below 60%? Thanks.
criterion not met

hey, is residual activity for Nc1ncnc2c1cnn2-c1ccccc1 lower than 60% or not?
criterion not met

API: query returns whether the compound falls strictly under 60% in residual activity. Query: O=C(O)/C=C/c1cc(Br)c(Br)c(Br)c1Br
criterion not met

Please check: residual activity for O=C1Nc2ccc(Cl)cc2/C1=C/c1cc(Cl)c(O)c(Cl)c1 , strictly under 60% or not?
criterion met

---

# system.under.test: AMP-activated protein kinase (AMPK) alpha-1/beta-1/gamma-1 (Homo sapiens) (UniProt P54619+Q9Y478+Q13131)
# Sequence (P54619 whole entry): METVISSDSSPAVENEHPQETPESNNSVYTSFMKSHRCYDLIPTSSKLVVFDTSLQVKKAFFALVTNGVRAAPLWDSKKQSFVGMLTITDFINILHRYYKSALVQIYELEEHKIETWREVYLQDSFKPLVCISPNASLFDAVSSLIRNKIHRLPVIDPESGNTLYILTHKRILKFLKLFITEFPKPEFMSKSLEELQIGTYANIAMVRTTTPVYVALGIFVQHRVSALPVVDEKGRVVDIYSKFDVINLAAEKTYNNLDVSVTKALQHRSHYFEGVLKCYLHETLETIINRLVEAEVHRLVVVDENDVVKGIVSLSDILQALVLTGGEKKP
# Sequence (Q13131 whole entry partner): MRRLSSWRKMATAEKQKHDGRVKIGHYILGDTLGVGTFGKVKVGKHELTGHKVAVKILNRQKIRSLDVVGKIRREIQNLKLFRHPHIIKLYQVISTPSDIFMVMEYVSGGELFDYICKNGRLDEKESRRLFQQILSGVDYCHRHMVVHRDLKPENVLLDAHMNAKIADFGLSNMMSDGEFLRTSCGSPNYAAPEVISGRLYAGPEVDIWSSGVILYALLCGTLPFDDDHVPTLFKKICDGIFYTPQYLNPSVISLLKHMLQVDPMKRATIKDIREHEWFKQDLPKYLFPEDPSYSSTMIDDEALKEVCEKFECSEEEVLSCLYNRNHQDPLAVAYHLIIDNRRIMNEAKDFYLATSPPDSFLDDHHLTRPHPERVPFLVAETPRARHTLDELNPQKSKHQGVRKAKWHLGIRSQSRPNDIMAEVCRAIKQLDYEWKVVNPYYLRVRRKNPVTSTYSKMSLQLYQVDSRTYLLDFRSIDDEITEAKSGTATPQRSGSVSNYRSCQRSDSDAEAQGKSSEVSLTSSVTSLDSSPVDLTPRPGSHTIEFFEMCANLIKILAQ
# Sequence (Q9Y478 2-270 partner limits assumed): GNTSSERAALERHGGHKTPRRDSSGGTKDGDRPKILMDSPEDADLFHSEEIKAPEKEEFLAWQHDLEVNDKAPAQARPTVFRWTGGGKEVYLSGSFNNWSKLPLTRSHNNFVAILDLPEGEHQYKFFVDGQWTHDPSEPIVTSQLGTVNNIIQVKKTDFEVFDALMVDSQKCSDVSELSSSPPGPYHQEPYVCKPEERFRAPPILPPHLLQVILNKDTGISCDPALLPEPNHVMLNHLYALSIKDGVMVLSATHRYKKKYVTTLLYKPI
# test.settings: at 1 µM
experimental.readout: residual activity (%)
Give the value, in units of %, as a plain number.

Endpoint output: residual activity of CSc1nc(-c2ccc(F)cc2)c(-c2ccnc(NC(C)c3ccccc3)c2)[nH]1 (stereo unspecified) . Value?
88

Fill in: residual activity of CCCCc1c(-c2ccc(O)cc2)[nH]c2nccnc12 is ___
85

What does the data say about its residual activity? Entry: CCCCc1c(-c2ccc(OC)cc2)[nH]c2nccnc12
82

I have this compound here, CCCC(=O)Oc1ccc2[nH]c(C(=O)c3cc4ccccc4[nH]3)cc2c1 , and I need its recorded residual activity.
85

Can you share its residual activity? I mean this compound: O=c1cc(N2CCOCC2)oc2c1ccc1ccccc12
110

Request the reported residual activity associated with N#C/C(=C\c1ccc(O)c(O)c1)C(=O)NCc1ccccc1
87

---

# system.under.test: Fibroblast growth factor receptor 1 (Homo sapiens) (UniProt P11362)
# Sequence (P11362 22-822 limits assumed): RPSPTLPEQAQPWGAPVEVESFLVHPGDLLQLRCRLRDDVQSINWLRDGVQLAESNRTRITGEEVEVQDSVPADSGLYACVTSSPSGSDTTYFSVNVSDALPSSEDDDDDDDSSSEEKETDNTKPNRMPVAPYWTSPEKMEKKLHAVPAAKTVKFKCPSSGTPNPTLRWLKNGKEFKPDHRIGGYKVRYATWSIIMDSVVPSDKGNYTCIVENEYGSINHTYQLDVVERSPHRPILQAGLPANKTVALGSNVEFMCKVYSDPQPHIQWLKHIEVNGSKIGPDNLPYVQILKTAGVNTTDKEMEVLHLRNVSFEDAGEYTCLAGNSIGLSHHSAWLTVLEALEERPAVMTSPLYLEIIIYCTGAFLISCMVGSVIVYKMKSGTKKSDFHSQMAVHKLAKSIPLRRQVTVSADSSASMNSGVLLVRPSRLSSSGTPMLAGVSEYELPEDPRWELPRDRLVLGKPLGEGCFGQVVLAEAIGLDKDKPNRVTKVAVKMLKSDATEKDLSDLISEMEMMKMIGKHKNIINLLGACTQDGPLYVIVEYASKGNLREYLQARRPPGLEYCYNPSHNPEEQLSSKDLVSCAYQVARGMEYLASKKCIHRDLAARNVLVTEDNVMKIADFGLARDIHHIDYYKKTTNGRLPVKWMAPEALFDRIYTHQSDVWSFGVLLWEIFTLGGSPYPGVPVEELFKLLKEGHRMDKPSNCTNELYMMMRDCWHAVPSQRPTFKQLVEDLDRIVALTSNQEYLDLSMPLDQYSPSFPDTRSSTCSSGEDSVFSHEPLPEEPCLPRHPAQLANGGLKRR
# test.settings: at 1 µM
experimental.readout: residual activity (%)
Respond with the bare value in %.

Requested field: residual activity. Item: CCCCc1c(-c2ccc(O)cc2)[nH]c2nccnc12
41

Can you look up the measured residual activity of O=C1NC(=O)c2c1c1c3ccccc3[nH]c1n1cncc21 for me?
41

Query: residual activity; subject: Cn1sc(=O)n(Cc2ccccc2)c1=O
92

Given O=C(c1cc2cc(O)ccc2[nH]1)c1cc2cc(O)ccc2[nH]1 , state its recorded residual activity.
40

Entry O=C1Cc2c([nH]c3ccc([N+](=O)[O-])cc23)-c2ccccc2N1 : reported residual activity = ?
74

Can you share its residual activity? I mean this molecule: CC(C)c1nn(-c2c(Cl)cccc2Cl)c2nc(Cc3ccc(OCCO)cc3)[nH]c(=O)c12
70

Consider the molecule O=C(c1ccccc1)c1ccc(N2CCOCC2)cc1O and give its measured residual activity.
98

Reported residual activity for Nc1ncnc2c1c(-c1ccc(Oc3ccccc3)cc1)cn2C1CCCC1 : what is it?
13

So what's the measured residual activity for this one? COc1ccc(COc2ccc(Cc3cnc(N)nc3N)cc2OC)cc1
112

Data request, read-out residual activity, for CC(C)(C)n1nc(Cc2cccc3ccccc23)c2c(N)ncnc21
28

# residual activity lookup, item CCN(CC)CCNC(=O)c1c(C)[nH]c(/C=C2\C(=O)Nc3ccc(Cl)cc32)c1C
7

I am curious: what residual activity value has been reported for CC(C)N(CCC(=O)c1ccc2ccccc2c1)Cc1ccccc1 ?
125

Suppose we examine the molecule O=c1c(-c2ccc(F)cc2)c(-c2ccncc2)[nH]n1-c1ccc(Cl)cc1 ; what residual activity value has been reported?
127

Return reported residual activity; argument: COc1cc2nccc(Oc3ccc(NC(=S)NC(=O)c4ccccc4C)cc3)c2cc1OC
49

Endpoint output: residual activity of Cn1c2ccccc2c2c3c(c4c5ccccc5n(CCC#N)c4c21)CNC3=O . Value?
7

For NC(=O)Nc1sc(-c2ccc(F)cc2)cc1C(N)=O , what is its reported residual activity?
29

Suppose we examine the molecule Cc1cc(C)c(/C=C2\C(=O)Nc3ccccc32)[nH]1 ; what residual activity value has been reported?
65

Which residual activity value is on record for O=C1C(Cl)=C(N2C(=O)CCC2=O)C(=O)c2ccccc21 ?
118

What does the record list as residual activity for O=c1cc(N2CCNCC2)oc2c(-c3ccccc3)cccc12 ?
105

Field request: residual activity | item: Nc1nccc(-c2c(-c3ccc(F)cc3)ncn2C2CCNCC2)n1
119

Quick one: residual activity of c1ccc(-c2cnc(Nc3ccc(OCCN4CCCC4)cc3)s2)cc1 ?
59

Value lookup for residual activity; key = O=C1NC(=O)C(c2c[nH]c3ccccc23)=C1c1c[nH]c2ccccc12
9

Reported residual activity, molecule Nc1ncnc2c1cnn2-c1ccccc1 : ____
127

---

Field: residual activity. Provide a value for each of the molecules that follow.
# system.under.test: Cyclin-dependent kinase 7/ cyclin H (Homo sapiens) (UniProt P51946+P50613)
# test.settings: at 10 µM
Dear colleague, please return just the value in %, with no unit written.

Any idea what residual activity was measured for CC(C)(C)n1nc(Cc2cccc3ccccc23)c2c(N)ncnc21 ?
90

Return reported residual activity; argument: CC(C)c1nn(-c2c(Cl)cccc2Cl)c2nc(Cc3ccc(OCCO)cc3)[nH]c(=O)c12
1

Looking for the measured residual activity of CC(C)N(CCC(=O)c1ccc2ccccc2c1)Cc1ccccc1 , can you help?
82

// returns reported residual activity for input O=C1NC(=O)c2c1c1c3ccccc3[nH]c1n1cncc21
69

Which residual activity is reported for this molecule? O=S(=O)(NCCNC/C=C/c1ccc(Br)cc1)c1cccc2cnccc12
41
